tested.target: T1, human IL-36R extracellular domain expressed with a C-terminal mouse IgG2a Fc tag (hIL-36R-mFc) (human; mouse, UniProt Q9HB29 20-337)
T1 construct: not shown: mouse IgG2a Fc, E98-K330
T1 sequence (looked up): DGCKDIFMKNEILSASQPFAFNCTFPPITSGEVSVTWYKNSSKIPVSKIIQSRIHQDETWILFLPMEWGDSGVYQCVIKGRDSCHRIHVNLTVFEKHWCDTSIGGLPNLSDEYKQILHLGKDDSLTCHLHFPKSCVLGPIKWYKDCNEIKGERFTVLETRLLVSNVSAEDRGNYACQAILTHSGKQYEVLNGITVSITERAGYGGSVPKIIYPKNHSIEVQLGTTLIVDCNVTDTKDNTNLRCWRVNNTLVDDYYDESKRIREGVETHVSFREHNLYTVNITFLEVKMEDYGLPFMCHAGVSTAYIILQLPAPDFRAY
measurement.notes: SPR Biacore 4000, mAb captured on anti-hFc, 37C
assay.metric: 100 nM hIL-36R-mFc Bound (RU)

- H4H14757P (antibody, human IgG4 S228P, kappa, V domains shown, Fully human anti-IL-36R antibody) VH: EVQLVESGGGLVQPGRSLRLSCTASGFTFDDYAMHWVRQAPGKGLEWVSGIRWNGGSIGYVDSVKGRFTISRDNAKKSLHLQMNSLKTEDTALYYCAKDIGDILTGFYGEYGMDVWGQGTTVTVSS VL: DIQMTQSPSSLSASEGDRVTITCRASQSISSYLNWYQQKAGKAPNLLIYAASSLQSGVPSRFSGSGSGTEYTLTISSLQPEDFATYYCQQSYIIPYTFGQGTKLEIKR: 235
- H4H14731P (antibody, human IgG4 S228P, kappa, V domains shown, Fully human anti-IL-36R antibody) VH: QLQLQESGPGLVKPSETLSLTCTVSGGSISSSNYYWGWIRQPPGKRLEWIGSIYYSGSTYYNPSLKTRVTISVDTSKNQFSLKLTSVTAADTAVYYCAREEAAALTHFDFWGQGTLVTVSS VL: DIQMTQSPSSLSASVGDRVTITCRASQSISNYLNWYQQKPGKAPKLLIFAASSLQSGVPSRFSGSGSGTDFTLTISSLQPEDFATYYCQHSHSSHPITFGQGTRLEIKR: 12
- H4H14700P2 (antibody, human IgG4 S228P, kappa, V domains shown, Fully human anti-IL-36R antibody) VH: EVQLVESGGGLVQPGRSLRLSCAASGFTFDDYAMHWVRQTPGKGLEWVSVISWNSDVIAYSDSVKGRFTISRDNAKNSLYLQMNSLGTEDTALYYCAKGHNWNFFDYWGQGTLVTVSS VL: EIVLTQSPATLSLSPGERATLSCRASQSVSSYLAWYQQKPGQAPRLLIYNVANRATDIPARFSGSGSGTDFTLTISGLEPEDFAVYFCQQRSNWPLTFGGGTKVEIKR: 174
